- targetUnderTest: human 11βHSD1 enzyme (Homo sapiens, UniProt P28845)
- Construct: baculovirus expressed N terminal 6-His tagged full length human 11βHSD1 enzyme; 6-His (N); made in house
- Sequence (P28845 whole entry): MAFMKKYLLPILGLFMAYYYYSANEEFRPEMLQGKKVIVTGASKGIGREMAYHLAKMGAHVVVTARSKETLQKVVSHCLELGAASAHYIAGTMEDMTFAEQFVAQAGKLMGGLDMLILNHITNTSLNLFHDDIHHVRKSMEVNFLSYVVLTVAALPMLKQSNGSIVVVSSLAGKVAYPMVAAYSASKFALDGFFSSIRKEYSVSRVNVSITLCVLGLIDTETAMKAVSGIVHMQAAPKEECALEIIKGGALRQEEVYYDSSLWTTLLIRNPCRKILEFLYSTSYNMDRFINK
- procedureSummary: 11βHSD1 cortisone to cortisol conversion, competitive HTRF assay
- Type: biochemical
- conditionSummary: human 11-βHSD; test concentration of 30 μM of compound
measurementKind: inhibition at 30 µM (%)
Give bare numbers, in %.

Use these answered entries as a reference point.
compound	inhibition at 30 µM [%]
Cc1ncc(C(=O)NC2C3CC4CC(C3)CC2C4)c(C2CC2)n1 (centres unmarked) [Example 12]	97.3
Nc1ncc(C(=O)N[C@H]2C3CC4CC2C[C@@](O)(C4)C3)c(C2CCC2)n1 [Example 84]	97.5
O=C(N[C@H]1C2CC3CC1C[C@@](O)(C3)C2)c1cnc(NCCO)nc1C1CC1 [Example 69]	102

Dear reader, for each entry below, please note its inhibition at 30 µM.
1. O=C(N[C@H]1C2CC3CC1C[C@@](O)(C3)C2)c1cnc(N2CCOC(CO)C2)nc1C1CCCC1 (some centres unmarked) [Example 145]
2. CN(C)c1ncc(C(=O)N[C@H]2C3CC4CC2C[C@@](O)(C4)C3)c(N(C)C)n1 [Example 199]
3. CC(C)N1CCN(c2ncc(C(=O)N[C@H]3C4CC5CC3C[C@@](O)(C5)C4)c(C3CCCC3)n2)CC1=O [Example 127]
4. CCCSc1nc(N2CCN(C(=O)N(C)C)CC2)ncc1C(=O)NC1C2CC3CC(C2)CC1C3 (centres unmarked) [Example 29]
5. O=C(N[C@H]1C2CC3CC1C[C@@](O)(C3)C2)c1cnc(NC2CC2)nc1C1CCC1 [Example 88]

Ans.
[92.9, 96.8, 103, 100, 94.9]

###

- targetUnderTest: human 11βHSD1 enzyme (Homo sapiens)
- Construct: baculovirus expressed N terminal 6-His tagged full length human 11βHSD1 enzyme; 6-His (N); made in house
- procedureSummary: 11βHSD1 cortisone to cortisol conversion, competitive HTRF assay
- Type: biochemical
- conditionSummary: human 11-βHSD; test concentration of 30 μM of compound
measurementKind: inhibition at 30 µM (%)
Answers are plain numbers, in %.

# example entries with known answers
compound	inhibition at 30 µM (%)
C[C@@H]1CN(c2ncc(C(=O)N[C@H]3C4CC5CC3C[C@@](O)(C5)C4)c(C3CC(F)(F)C3)n2)C[C@H](C)O1	65.5
CC(=O)N1CCN(c2ncc(C(=O)N3CCC(c4cccnc4)C3)c(C3CC3)n2)CC1 (stereo not shown)	99.2
O=C(N[C@H]1C2CC3CC1C[C@@](O)(C3)C2)c1cnc(N2CCC2)nc1C1CCCC1	101

I'm hoping you can list inhibition at 30 µM for every compound here, please.
1. O=C(N[C@H]1C2CC3CC1C[C@@](O)(C3)C2)c1cnc(N2CCCS(=O)(=O)CC2)nc1C1CC1
2. CCCSc1ncc(C(=O)N[C@H]2C3CC4CC2C[C@@](O)(C4)C3)c(NC)n1
3. CC(C)Nc1ncc(C(=O)N[C@H]2C3CC4CC2C[C@@](O)(C4)C3)c(C2CC2)n1
4. O=C(N[C@H]1C2CC3CC1C[C@@](O)(C3)C2)c1cnc(N2CCOC(CO)C2)nc1C1CCC1 (stereo partly shown)

Ans.
1. 98.5
2. 89.5
3. 95.9
4. 93.1

###

- targetUnderTest: human 11βHSD1 enzyme (Homo sapiens)
- Construct: baculovirus expressed N terminal 6-His tagged full length human 11βHSD1 enzyme; 6-His (N); made in house
- procedureSummary: 11βHSD1 cortisone to cortisol conversion, competitive HTRF assay
- Format: biochemical
- conditionSummary: human 11-βHSD; test concentration of 30 μM of compound
- Procedure: The evaluation of compounds described herein was carried out using a baculovirus expressed N terminal 6-His tagged full length human 11βHSD1 enzyme(*1). The enzyme was purified from a detergent solubilised cell lysate, using a copper chelate column. Inhibitors of 11βHSD1 reduce the conversion of cortisone to cortisol, which is identified by an increase in signal, in the above assay. […] Fluorescence at 665 nm and 620 nm was measured and the 665 nm:620 nm ratio calculated using an Envision plate reader.
measurementKind: inhibition at 30 µM (%)
Answers are plain numbers, in %.

List the reported inhibition at 30 µM of each compound below.
1. CCOc1nc(NC2COC2)ncc1C(=O)N[C@H]1C2CC3CC1C[C@@](O)(C3)C2
2. O=C(N[C@H]1C2CC3CC1C[C@@](O)(C3)C2)c1cnc(NCCN2CCOCC2)nc1C1CCCC1
3. O=C(N[C@H]1C2CC3CC1C[C@@](O)(C3)C2)c1cnc(N2CCSCC2)nc1C1CCC1

Ans.
1: 98.4; 2: 103; 3: 94

###

Kindly state inhibition at 30 µM for each of the entries shown.
- targetUnderTest: human 11βHSD1 enzyme (Homo sapiens, UniProt P28845)
- Construct: baculovirus expressed N terminal 6-His tagged full length human 11βHSD1 enzyme; 6-His (N); made in house
- procedureSummary: 11βHSD1 cortisone to cortisol conversion, competitive HTRF assay
- Assay type: biochemical
- conditionSummary: human 11-βHSD; test concentration of 30 μM of compound
One number for each entry, in %.

Use these answered entries as a reference point.
compound	targetUnderTest	valueUnits	recordedValue
O=C(N[C@H]1C2CC3CC1C[C@@](O)(C3)C2)c1cnc(N2CCS(=O)(=O)CC2)nc1C1CCC1 [Example 83]	human 11βHSD1 enzyme (Homo sapiens, UniProt P28845)	%	103
O=C(N[C@H]1C2CC3CC1C[C@@](O)(C3)C2)c1cnc(NC2CCCC2)nc1C1CC1 [Example 57]	human 11βHSD1 enzyme (Homo sapiens, UniProt P28845)	%	102
O=C(N[C@H]1C2CC3CC1C[C@@](O)(C3)C2)c1cnc(N2CC(F)(F)C2)nc1C1CCC1 [Example 89]	human 11βHSD1 enzyme (Homo sapiens, UniProt P28845)	%	95.5

Moving on to the next compound.
Qu. State the recorded inhibition at 30 µM for this entry: O=C(N[C@H]1C2CC3CC1C[C@@](O)(C3)C2)c1cnc(N2CCOCC2)nc1N1CCOCC1 [compound 32]
Ans. 97

###

- targetUnderTest: human 11βHSD1 enzyme (Homo sapiens)
- Construct: baculovirus expressed N terminal 6-His tagged full length human 11βHSD1 enzyme; 6-His (N); made in house
- procedureSummary: 11βHSD1 cortisone to cortisol conversion, competitive HTRF assay
- Assay type: biochemical
- conditionSummary: human 11-βHSD; test concentration of 30 μM of compound
measurementKind: inhibition at 30 µM (%)
Answers are plain numbers, in %.

Recorded inhibition at 30 µM, per entry:
compound	valueUnits	inhibition at 30 µM
CNc1ncc(C(=O)N[C@H]2C3CC4CC2C[C@@](O)(C4)C3)c([C@H]2CCCO2)n1 [Example 167]	%	101
CNc1ncc(C(=O)N[C@H]2C3CC4CC2C[C@@](O)(C4)C3)c(C2CC2)n1 [Example 34]	%	98
CC(C)Nc1ncc(C(=O)N[C@H]2C3CC4CC2C[C@@](O)(C4)C3)c([C@@H]2CCCO2)n1 [Example 179]	%	95.1
O=C(N[C@H]1C2CC3CC1C[C@@](O)(C3)C2)c1cnc(N2CCOCC2CO)nc1C1CCC1 (some centres unmarked) [Example 90]	%	100
O=C(N[C@H]1C2CC3CC1C[C@@](O)(C3)C2)c1cnc(N2C[C@@H]3C[C@H]2CO3)nc1C1CCCC1 [Example 120]	%	101
O=C(N[C@H]1C2CC3CC1C[C@@](O)(C3)C2)c1cnc(OC2CCCC2)nc1C1CC1 [Example 77]	%	90.9
O=C(N[C@H]1C2CC3CC1C[C@@](O)(C3)C2)c1cnc(NC2CC2)nc1C1CCCC1 [Example 122]	%	97.5

# input for lookup
Qu. What is its inhibition at 30 µM for human 11βHSD1 enzyme (Homo sapiens)? Entry: O=C(N[C@H]1C2CC3CC1C[C@@](O)(C3)C2)c1cnc(N2CCS(=O)(=O)CC2)nc1C1CC1 [Example 37]
Ans. 93.5

###

- targetUnderTest: human 11βHSD1 enzyme (Homo sapiens)
- Construct: baculovirus expressed N terminal 6-His tagged full length human 11βHSD1 enzyme; 6-His (N); made in house
- procedureSummary: 11βHSD1 cortisone to cortisol conversion, competitive HTRF assay
- Assay type: biochemical
- conditionSummary: human 11-βHSD; test concentration of 30 μM of compound
measurementKind: inhibition at 30 µM
Dear colleague, please send the value followed by its unit.

Before answering, review these 3 worked examples.
compound	targetUnderTest	inhibition at 30 µM
O=C(N[C@H]1C2CC3CC1C[C@@](O)(C3)C2)c1cnc(NC2CCOCC2)nc1C1CCC1 [Example 96]	human 11βHSD1 enzyme (Homo sapiens)	97.4%
O=C(N[C@H]1C2CC3CC1C[C@@](O)(C3)C2)c1cnc(NC2CCCC2)nc1C1CCC1 [Example 102]	human 11βHSD1 enzyme (Homo sapiens)	93.8%
O=C(N[C@H]1C2CC3CC1C[C@@](O)(C3)C2)c1cnc(N2CCCSCC2)nc1C1CC1 [Example 43]	human 11βHSD1 enzyme (Homo sapiens)	99.2%

For every listed record, write down its inhibition at 30 µM.
1. CC(C)Oc1nc(N2C[C@@H](C)O[C@@H](C)C2)ncc1C(=O)N[C@H]1C2CC3CC1C[C@@](O)(C3)C2 [Example 214]
2. C[C@@H]1CN(c2ncc(C(=O)N[C@H]3C4CC5CC3C[C@@](O)(C5)C4)c(C3CC3)n2)C[C@H](C)O1 [Example 42]
3. O=C(N[C@H]1C2CC3CC1C[C@@](O)(C3)C2)c1cnc(OC2COC2)nc1C1CCC1 [Example 109]
4. O=C(NC1C2CC3CC1CC(O)(C3)C2)c1cnc(N2C[C@@H]3C[C@H]2CO3)nc1C1CCC1 (stereo partly shown) [Example 103]

Ans.
["103%", "99.4%", "90.3%", "95.7%"]

meta.source: patent US20090264401A1
